Source: ChEMBL document CHEMBL4699542

Experiment: Kinetic aqueous solubility of the compound in pH 7.4 PBS buffer by UV/Visible absorbance analysis
Format: physicochemical
Conditions: read-out: Kinetic_solubility
measurementKind: log10(solubility kinetic) (log10 of the value in µM)
Log10 applied to solubility kinetic; unit prior to transform: µM.

Exercise: I have this compound here, `CCn1nc(C(C)(C)C)cc1Nc1nc(-c2ccc(-n3cnc(C)c3)c(OC)n2)cs1` , and I need its recorded log10(solubility kinetic).
Key: 1.18

Exercise: Also need `CCn1nc2c(c1N(C)c1nc(-c3ccc(-n4cnc(C)c4)c(OC)n3)cs1)CCCC2` , thanks.
Key: 0.53

Exercise: // next record `COCCn1nc2c(c1Nc1nc(-c3ccc(-n4cnc(C)c4)c(OC)n3)cs1)CCCC2`
Key: 1.30

Exercise: Also `COc1nc(-c2csc(Nc3c4c(nn3C(C)C)CCC4)n2)ccc1-n1cnc(C)c1` ?
Key: 0.76

Exercise: Could you do the same for `COc1nc(-c2csc(Nc3c4c(nn3CC(F)(F)F)CCC4)n2)ccc1-n1cnc(C)c1` , please?
Key: 1.34

Exercise: Repeat for the following compound: `COc1nc(-c2csc(Nc3cc(C(C)(C)C)nn3CC(F)(F)F)n2)ccc1-n1cnc(C)c1`
Key: 0.23

Exercise: And then `COc1nc(-c2csc(Nc3cc(C(C)(C)C)nn3CCF)n2)ccc1-n1cnc(C)c1` , what is it?
Key: 0.52

Exercise: Cool, now `COc1nc(-c2csc(Nc3cc(C(C)(C)C)nn3C(C)C)n2)ccc1-n1cnc(C)c1`
Key: 1.36

Exercise: Check `COc1nc(-c2csc(Nc3c4c(nn3CCF)CCC4)n2)ccc1-n1cnc(C)c1` too.
Key: 1.36

Exercise: // query: `COc1nc(-c2csc(Nc3c4c(nn3CCF)CCCC4)n2)ccc1-n1cnc(C)c1`
Key: 1.18

Exercise: Now try `COc1nc(-c2csc(Nc3c4c(nn3CCN3CCOCC3)CCCC4)n2)ccc1-n1cnc(C)c1` .
Key: 1.85

Exercise: Proceed to `CCn1nc2c(c1Nc1nc(-c3ccc(-n4cnc(C)c4)c(OC)c3)cs1)CCCC2`
Key: 0.66

Exercise: Now consider `COc1nc(-c2csc(Nc3c4c(nn3C3CCOCC3)CCCC4)n2)ccc1-n1cnc(C)c1` and answer again.
Key: 0.67

Exercise: Next up: `COc1nc(-c2csc(Nc3c4c(nn3C(C)C)CCCC4)n2)ccc1-n1cnc(C)c1`
Key: 0.52

Exercise: Similarly, COc1nc(-c2csc(Nc3c4c(nn3C3CCOC3)CCCC4)n2)ccc1-n1cnc(C)c1 (racemic) ?
Key: 1.28

Exercise: // query: `COc1nc(-c2csc(Nc3c4c(nn3CC(F)(F)F)CCCC4)n2)ccc1-n1cnc(C)c1`
Key: 0.87

Exercise: Next entry: `COc1nc(-c2csc(Nc3c4c(nn3C)CCC4)n2)ccc1-n1cnc(C)c1`
Key: 1.64

Exercise: Also check `COc1nc(-c2csc(Nc3c4c(nn3C(C)(C)C)CCC4)n2)ccc1-n1cnc(C)c1`
Key: 0.59

Exercise: Subsequent entry: `COc1nc(-c2csc(Nc3c4c(nn3CCO)CCC4)n2)ccc1-n1cnc(C)c1`
Key: 1.46

Exercise: Consider next the compound `COc1nc(-c2csc(Nc3c4c(nn3C3CCCC3)CCCC4)n2)ccc1-n1cnc(C)c1` in the same way.
Key: 0.26

Exercise: Can you handle `COc1nc(-c2csc(Nc3c4c(nn3C3CCN(C)CC3)CCCC4)n2)ccc1-n1cnc(C)c1` next?
Key: 1.96

Exercise: Follow-up item: `CCn1nc(C(F)(F)F)cc1Nc1nc(-c2ccc(-n3cnc(C)c3)c(OC)n2)cs1`
Key: 1.18
